FYI, the data here is from ChEMBL document CHEMBL4765390.

study-system: Nuclear receptor ROR-beta (Homo sapiens, UniProt Q92753)
Sequence (Q92753 whole entry, the tested form may be a part): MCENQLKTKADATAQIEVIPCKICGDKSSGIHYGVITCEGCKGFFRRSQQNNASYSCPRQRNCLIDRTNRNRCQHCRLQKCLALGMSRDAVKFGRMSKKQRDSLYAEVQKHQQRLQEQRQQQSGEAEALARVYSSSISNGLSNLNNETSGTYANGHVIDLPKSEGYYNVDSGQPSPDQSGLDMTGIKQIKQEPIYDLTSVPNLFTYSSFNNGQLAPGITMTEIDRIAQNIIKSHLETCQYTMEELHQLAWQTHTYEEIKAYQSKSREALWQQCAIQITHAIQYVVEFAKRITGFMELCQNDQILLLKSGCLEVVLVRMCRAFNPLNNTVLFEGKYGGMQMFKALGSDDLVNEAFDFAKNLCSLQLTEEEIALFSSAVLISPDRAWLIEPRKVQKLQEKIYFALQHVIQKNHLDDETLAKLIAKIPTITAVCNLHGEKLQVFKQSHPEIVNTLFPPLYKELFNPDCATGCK
test-protocol: Inverse agonist activity at ROR-beta (unknown origin) expressed in HEK293 cells by Gal4-luciferase reporter assay
pIC50: −log10 of the molar value.
measured-quantity: pIC50

Name the recorded pIC50 for `O=C(O)Cc1ccc(CNC(=O)Nc2cc(Cl)c(-c3ccccc3OC(F)(F)F)c(Cl)c2)cc1` .
< 5.00

* * *

study-system: Nuclear receptor ROR-alpha (Homo sapiens)
Sequence (P35398 whole entry): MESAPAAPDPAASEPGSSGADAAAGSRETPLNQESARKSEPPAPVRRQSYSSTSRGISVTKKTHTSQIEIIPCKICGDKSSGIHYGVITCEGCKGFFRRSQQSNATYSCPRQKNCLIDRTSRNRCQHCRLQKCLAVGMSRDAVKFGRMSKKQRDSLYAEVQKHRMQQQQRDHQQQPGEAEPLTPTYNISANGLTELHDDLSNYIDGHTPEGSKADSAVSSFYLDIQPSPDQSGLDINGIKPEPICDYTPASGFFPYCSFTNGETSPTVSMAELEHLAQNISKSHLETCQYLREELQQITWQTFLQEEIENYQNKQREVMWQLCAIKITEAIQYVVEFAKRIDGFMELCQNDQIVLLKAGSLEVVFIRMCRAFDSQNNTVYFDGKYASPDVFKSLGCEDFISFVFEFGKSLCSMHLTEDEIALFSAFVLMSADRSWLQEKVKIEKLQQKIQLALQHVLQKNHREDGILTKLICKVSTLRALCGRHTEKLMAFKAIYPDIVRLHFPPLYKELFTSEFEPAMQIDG
test-protocol: Inverse agonist activity at ROR-alpha (unknown origin) expressed in HEK293 cells by Gal4-luciferase reporter assay
measured-quantity: IC50

Name the recorded IC50 for `O=C(O)Cc1ccc(CNC(=O)Nc2cc(Cl)c(-c3ccccc3OC(F)(F)F)c(Cl)c2)cc1` .
> 10 µM

* * *

test-protocol: Half life in CD-1 mouse at 1 mg/kg, iv administered as single dose measured after 24 hrs by LC-MS/MS analysis
Type: ADME, organism-based
test-context: in vivo
measured-quantity: half-life (h)
Numbers only; they are read as h.

Name the recorded half-life for `O=C(O)Cc1ccc(CNC(=O)Nc2cc(Cl)c(-c3ccccc3OC(F)(F)F)c(Cl)c2)cc1` .
3.04

* * *

test-protocol: Clearance in CD-1 mouse at 1 mg/kg, iv administered as single dose measured after 24 hrs by LC-MS/MS analysis
Format: ADME, organism-based
test-context: in vivo
measured-quantity: clearance (mL/min/kg)
Numbers only; they are read as mL/min/kg.

Name the recorded clearance for `O=C(O)Cc1ccc(CNC(=O)Nc2cc(Cl)c(-c3ccccc3OC(F)(F)F)c(Cl)c2)cc1` .
13.1
